Value source: BigSolDB 2.1

Conditions: in ethanol, 293.15 K
RECORDED_ENDPOINT: solubility (mole fraction)
Answers are plain numbers.

GET /values?readout=solubility (mole fraction)&item= NC(=O)Nc1ccccc1
0.0322

---

Conditions: in ethyl acetate, 293.15 K
RECORDED_ENDPOINT: solubility (mole fraction)
Answers are plain numbers.

GET /values?readout=solubility (mole fraction)&item= NC(=O)Nc1ccccc1
0.0209

---

Conditions: in ethanol, 308.15 K
RECORDED_ENDPOINT: solubility (mole fraction)
Give bare numbers.

GET /values?readout=solubility (mole fraction)&item= NC(=O)Nc1ccccc1
0.0525

---

Conditions: in n-propanol, 288.15 K
RECORDED_ENDPOINT: solubility (mole fraction)

GET /values?readout=solubility (mole fraction)&item= NC(=O)Nc1ccccc1
0.0235
